biological target: human full-length glucocorticoid receptor (Homo sapiens); construct: a cell lysate containing recombinantly expressed human full-length glucocorticoid receptor; purchased PanVera Co., Madison, Wis; P2816; test: Glucocorticoid Receptor Binding Assay (II), fluorescence polarization competitor kit (Fluormone GS1); conditions: cell lysate with recombinant human full-length GR, 1 nM Fluormone GS1, FP
ASSAY METRIC: Ki (nM)

CC(C)(C(=O)Nc1nncs1)[C@@H](c1ccccc1)c1ccc2c(cnn2-c2ccc(F)cc2C(N)=O)c1 ... 22
O=C(Nc1nncs1)C1(C(c2ccccc2)c2ccc3c(cnn3-c3ccc(F)cc3)c2)CCCCC1 (stereo not shown) ... 4

1. CC(C)(CO)CNC(=O)C(C)(C)C(Cc1ccccc1)c1ccc2c(cnn2-c2ccc(F)cc2)c1 (stereo not shown)
2. CC(C(=O)Nc1nncs1)C(c1ccccc1)c1ccc2[nH]ncc2c1 (single isomer, unassigned) [151-diast B]
// query Identify the entry with the smaller Ki: 1 or 2 . Pick one; state its label.
// result 1

---

Molecular target: human full-length glucocorticoid receptor (Homo sapiens)
Construct: a cell lysate containing recombinantly expressed human full-length glucocorticoid receptor; purchased PanVera Co., Madison, Wis; P2816
Sequence (P04150 1-777): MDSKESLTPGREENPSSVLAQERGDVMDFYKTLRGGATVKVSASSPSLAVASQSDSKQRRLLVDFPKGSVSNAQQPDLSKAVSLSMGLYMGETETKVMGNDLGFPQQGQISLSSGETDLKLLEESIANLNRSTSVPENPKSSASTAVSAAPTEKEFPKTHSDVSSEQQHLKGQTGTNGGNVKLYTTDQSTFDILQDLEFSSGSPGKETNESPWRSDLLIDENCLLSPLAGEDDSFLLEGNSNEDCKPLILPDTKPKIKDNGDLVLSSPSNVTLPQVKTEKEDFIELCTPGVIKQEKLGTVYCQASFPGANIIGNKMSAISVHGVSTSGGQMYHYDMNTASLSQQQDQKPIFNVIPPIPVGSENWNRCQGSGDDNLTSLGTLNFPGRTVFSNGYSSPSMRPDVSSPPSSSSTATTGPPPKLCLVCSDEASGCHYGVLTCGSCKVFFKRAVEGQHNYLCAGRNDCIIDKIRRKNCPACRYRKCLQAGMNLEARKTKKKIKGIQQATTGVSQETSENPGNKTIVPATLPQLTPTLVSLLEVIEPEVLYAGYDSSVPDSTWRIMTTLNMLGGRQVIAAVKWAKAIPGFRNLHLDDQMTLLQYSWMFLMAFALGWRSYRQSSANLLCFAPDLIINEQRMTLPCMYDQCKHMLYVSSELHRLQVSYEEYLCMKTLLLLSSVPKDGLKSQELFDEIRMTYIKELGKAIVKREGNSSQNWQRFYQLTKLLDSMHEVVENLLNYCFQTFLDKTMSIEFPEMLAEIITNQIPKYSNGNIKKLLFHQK
Test: Glucocorticoid Receptor Binding Assay (II), fluorescence polarization competitor kit (Fluormone GS1)
Details: cell lysate with recombinant human full-length GR, 1 nM Fluormone GS1, FP
ASSAY METRIC: Ki (nM)

In the examples that follow, each entry is paired with its recorded Ki.
CC(C)(C(=O)Nc1nccs1)C(Cc1ccccc1)c1ccc2c(cnn2-c2ccc(F)cc2)c1 (stereo not shown) [Example 138] ... 1.9
O=C(Nc1nncs1)C(c1ccccc1)C(c1ccccc1)c1ccc2c(cnn2-c2ccc(F)cc2)c1 (single isomer, unassigned) [Example 145-isomerB] ... 1.1
O=C(Nc1nncs1)C(c1ccccc1)C(c1ccccc1)c1ccc2[nH]ncc2c1 (single isomer, unassigned) [152-diast A] ... 9.8

1. CCCC(c1ccc2c(cnn2-c2ccc(F)cc2)c1)C(C)(C)C(=O)Nc1nncs1 (stereo not shown) [Example 46]
2. CC(C)(C(=O)Nc1nncs1)[C@@H](c1ccccc1)c1ccc2c(cnn2-c2ccc(F)cc2N)c1 [Example 159]
3. CC(C)(C(=O)NC1CCNCC1)C(Cc1ccccc1)c1ccc2c(cnn2-c2ccc(F)cc2)c1 (stereo not shown) [Example 133]
4. Cc1ccccc1C(c1ccc2c(cnn2-c2ccc(F)cc2)c1)C(C)(C)C(=O)Nc1nncs1 (stereo not shown) [Example 49]
// query # ascending order, key=Ki Please list the labels in the order you were asked to rank them.
// result 2, 4, 1, 3
(2: 0.35 nM, 4: 1.1 nM, 1: 1.7 nM, 3: 153 nM)

Value source: patent US8067447B2
